Every entry's value here was drawn from paper PMC3372611.

Molecular target: PMAT I89M mutant (Homo sapiens, UniProt Q7RTT9, I89M)
Sequence (Q7RTT9 1-530 I89M): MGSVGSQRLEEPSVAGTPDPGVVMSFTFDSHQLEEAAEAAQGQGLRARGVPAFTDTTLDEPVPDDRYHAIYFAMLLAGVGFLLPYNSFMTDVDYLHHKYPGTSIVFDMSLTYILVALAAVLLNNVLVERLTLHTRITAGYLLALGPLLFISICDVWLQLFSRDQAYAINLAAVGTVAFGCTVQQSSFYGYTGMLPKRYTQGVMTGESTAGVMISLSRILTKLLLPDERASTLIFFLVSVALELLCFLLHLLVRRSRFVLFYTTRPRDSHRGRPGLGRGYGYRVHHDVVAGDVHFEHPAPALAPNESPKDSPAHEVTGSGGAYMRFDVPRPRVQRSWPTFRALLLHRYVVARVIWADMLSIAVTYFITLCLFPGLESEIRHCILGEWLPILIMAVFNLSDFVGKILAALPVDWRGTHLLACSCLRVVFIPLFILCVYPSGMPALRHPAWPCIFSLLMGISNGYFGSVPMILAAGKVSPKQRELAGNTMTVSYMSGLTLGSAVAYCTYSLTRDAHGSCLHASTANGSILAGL
Experiment: Inhibition of [3H]MPP+ uptake in I89M-transfected MDCK cells
property: pIC50
One number for each entry, as −log10 of the molar value.

OCCN(CCO)c1nc(N2CCCCC2)c2nc(N(CCO)CCO)nc(N3CCCCC3)c2n1 [Dipyridamole, dipyridamole] : 5.34

Switching to the query record.
Tested system PMAT I89M mutant (Homo sapiens, UniProt Q7RTT9, I89M); pIC50 recorded for COc1cc(C(=O)OCCCN2CCCN(CCCOC(=O)c3cc(OC)c(OC)c(OC)c3)CC2)cc(OC)c1OC [Dilazep, dilazep] was 5.18

###

Biological target: WT PMAT (Homo sapiens, UniProt Q7RTT9)
Sequence (Q7RTT9 1-530): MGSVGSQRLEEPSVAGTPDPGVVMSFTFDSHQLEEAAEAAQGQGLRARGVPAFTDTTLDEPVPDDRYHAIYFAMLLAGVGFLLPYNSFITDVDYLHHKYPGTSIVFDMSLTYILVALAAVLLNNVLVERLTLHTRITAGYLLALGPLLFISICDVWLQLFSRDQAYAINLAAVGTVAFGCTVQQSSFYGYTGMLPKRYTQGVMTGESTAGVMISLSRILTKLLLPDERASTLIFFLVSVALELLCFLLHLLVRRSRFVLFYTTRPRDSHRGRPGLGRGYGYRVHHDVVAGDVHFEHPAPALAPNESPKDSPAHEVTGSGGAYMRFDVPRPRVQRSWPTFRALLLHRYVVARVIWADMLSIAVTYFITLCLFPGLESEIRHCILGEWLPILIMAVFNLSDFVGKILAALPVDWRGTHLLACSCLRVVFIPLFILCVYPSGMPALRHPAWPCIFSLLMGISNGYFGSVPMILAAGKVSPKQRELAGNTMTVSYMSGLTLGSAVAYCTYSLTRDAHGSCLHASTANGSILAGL
Assay: Inhibition of [3H]MPP+ uptake in WT PMAT-transfected MDCK cells
property: IC50 (µM)
Give bare numbers, in µM.

Kindly note the recorded IC50 for COc1cc(C(=O)OCCCN2CCCN(CCCOC(=O)c3cc(OC)c(OC)c(OC)c3)CC2)cc(OC)c1OC [Dilazep, dilazep] , which is 16.6
